Recorded pKd by entry
biological target: canine FcRn complex (FcRn-alpha subunit and beta-microglobulin), His-tagged, biotin labeled (canine); assay: SPR (Biacore), biotin-FcRn captured on SA surface, IgG flowed over, pH 6, 15 C
pKd: −log10 of the molar value.

| BINDER | pKd |
| --- | --- |
| canine IgGB (65) mAb with mutation T286D (antibody, part only; not given: Variable domains, not shown: another chain or arm of the molecule) constant: ASTTAPSVFPLAPSCGSTSGSTVALACLVSGYFPEPVTVSWNSGSLTSGVHTFPSVLQSSGLYSLSSMVTVPSSRWPSETFTCNVAHPASKTKVDKPVPKRENGRVPRPPDCPKCPAPEMLGGPSVFIFPPKPKDTLLIARTPEVTCVVVDLDPEDPEVQISWFVDGKQMQDAKTQPREEQFNGTYRVVSVLPIGHQDWLKGKQFTCKVNNKALPSPIERTISKARGQAHQPSVYVLPPSREELSKNTVSLTCLIKDFFPPDIDVEWQSNGQQEPESKYRTTPPQLDEDGSYFLYSKLSVDKSRWQRGDTFICAVMHEALHNHYTQESLSHSPGK | 8.17 |
| canine IgGB (65) mAb with mutation D312Q (antibody, part only; not given: Variable domains, not shown: another chain or arm of the molecule) constant: ASTTAPSVFPLAPSCGSTSGSTVALACLVSGYFPEPVTVSWNSGSLTSGVHTFPSVLQSSGLYSLSSMVTVPSSRWPSETFTCNVAHPASKTKVDKPVPKRENGRVPRPPDCPKCPAPEMLGGPSVFIFPPKPKDTLLIARTPEVTCVVVDLDPEDPEVQISWFVDGKQMQTAKTQPREEQFNGTYRVVSVLPIGHQQWLKGKQFTCKVNNKALPSPIERTISKARGQAHQPSVYVLPPSREELSKNTVSLTCLIKDFFPPDIDVEWQSNGQQEPESKYRTTPPQLDEDGSYFLYSKLSVDKSRWQRGDTFICAVMHEALHNHYTQESLSHSPGK | 8.00 |
| canine IgGB (65) mAb with mutation D312W (antibody, part only; not given: Variable domains, not shown: another chain or arm of the molecule) constant: ASTTAPSVFPLAPSCGSTSGSTVALACLVSGYFPEPVTVSWNSGSLTSGVHTFPSVLQSSGLYSLSSMVTVPSSRWPSETFTCNVAHPASKTKVDKPVPKRENGRVPRPPDCPKCPAPEMLGGPSVFIFPPKPKDTLLIARTPEVTCVVVDLDPEDPEVQISWFVDGKQMQTAKTQPREEQFNGTYRVVSVLPIGHQWWLKGKQFTCKVNNKALPSPIERTISKARGQAHQPSVYVLPPSREELSKNTVSLTCLIKDFFPPDIDVEWQSNGQQEPESKYRTTPPQLDEDGSYFLYSKLSVDKSRWQRGDTFICAVMHEALHNHYTQESLSHSPGK | 7.84 |
| canine IgGB (65) mAb with mutation T286N (antibody, part only; not given: Variable domains, not shown: another chain or arm of the molecule) constant: ASTTAPSVFPLAPSCGSTSGSTVALACLVSGYFPEPVTVSWNSGSLTSGVHTFPSVLQSSGLYSLSSMVTVPSSRWPSETFTCNVAHPASKTKVDKPVPKRENGRVPRPPDCPKCPAPEMLGGPSVFIFPPKPKDTLLIARTPEVTCVVVDLDPEDPEVQISWFVDGKQMQNAKTQPREEQFNGTYRVVSVLPIGHQDWLKGKQFTCKVNNKALPSPIERTISKARGQAHQPSVYVLPPSREELSKNTVSLTCLIKDFFPPDIDVEWQSNGQQEPESKYRTTPPQLDEDGSYFLYSKLSVDKSRWQRGDTFICAVMHEALHNHYTQESLSHSPGK | 8.20 |

These entries and their values trace back to patent US20260139055A1.
